# Tested on: OVCAR-4 ovarian
# Method summary: NCI-60 one-dose screen, 48 h
# Setup conditions: 10 µM unless noted
The panel holds about 83,000 compounds, 20% with a hit somewhere; the sample as a whole holds those more often. Activity calls are given as the source filed them. How the source made its calls: active means growth percent below 10; inactive means the rest.
Possible outcomes: Yes (active), No (inactive)

Compound: O=c1c2ccccc2c2nccn2c2cc(Cl)ccc12
Answer label: No
--
Compound: COc1cccc(/C=C2\Cc3ccccc3C2=O)c1
Answer label: No
--
Compound: CC1CN(CC(O)c2ccc(Br)cc2)CCO1 (stereo unspecified)
Answer label: No
--
Compound: Nc1nc2c(nnn2Cc2ccc(Cl)c(Cl)c2)c(=O)[nH]1
Answer label: No
--
Compound: Cc1ccccc1NC(=O)NC(CC(N)=O)c1ccc2c(c1)nc(-c1cccc(Oc3ccc(C(C)(C)C)cc3)c1)n2CCCN1CCCCC1C (stereo unspecified)
Answer label: No
--
Compound: CCc1ccc(-c2nc(SCC(=O)NC3CCCCC3)n[nH]2)cc1
Answer label: No
--
Compound: O=CNc1ccc2c(c1)Cc1cc([N+](=O)[O-])ccc1-2
Answer label: No
--
Compound: COc1cc(/C=C/C(=O)CC(=O)/C=C/c2ccc(OC(=O)C3C4CC5CC(C4)CC3C5)c(OC)c2)ccc1OC(=O)C1C2CC3CC(C2)CC1C3 (stereo unspecified)
Answer label: No
--
Compound: Cc1cc2c(cc1C)[n+](Cc1ccc3ccccc3c1)cn2Cc1ccc2ccccc2c1
Answer label: Yes
--
Compound: CCCCCCCCCCN1CCC(N2CCCCC2)CC1
Answer label: No
--
Compound: O=C(Nc1cccc(-n2cc(-c3ccncc3)c(-c3cc(O)cc(Cl)c3)n2)c1)Nc1ccc(Cl)c(Cl)c1
Answer label: No
--
Compound: COCCCNS(=O)(=O)c1ncnc2nc[nH]c12
Answer label: No
--
Compound: O=C(O)CCNS(=O)(=O)c1ccc(-c2ccccc2)cc1
Answer label: No
--
Compound: O=C1/C=C/[C@@H](O)[C@@H]2C[C@@H](O)C[C@H]2/C=C/CCC[C@H](CO)O1
Answer label: No
--
Compound: Cc1ccc(N/N=C(/C(=O)c2ccc(Cl)cc2)c2nc(C)cc(=O)[nH]2)cc1
Answer label: No
--
Compound: COc1ccc(C(=O)/C=C/c2cccc(Nc3ccnc4cc(Cl)ccc34)c2)cc1
Answer label: Yes
--
Compound: O=C1Nc2ccc(Cl)cc2[C@@](C#CC2CC2)(C(F)(F)F)O1
Answer label: No
--
Compound: C[C@@H]1CN(c2nc3c(cc2F)c(=O)c(C(=O)O)cn3C(C)(C)C)C[C@H](C)N1
Answer label: No
--
Compound: CCSc1nc(-c2ccco2)n2nc(-c3ccco3)cc2n1
Answer label: No
--
Compound: O=C(COc1ccc(/C=C2\Oc3ccc4ccccc4c3C2=O)cc1)c1ccc([N+](=O)[O-])cc1
Answer label: No
--
Compound: COc1cc(C2CC(C3C(=O)N(C)C(=O)N(C)C3=O)=NN2c2cc(Cl)cc(Cl)c2)cc(OC)c1OC (stereo unspecified)
Answer label: No

====

# Tested on: K-562 leukemia
# Method summary: NCI-60 one-dose screen, 48 h (100 = growth as untreated, 0 = no growth, -100 = all killed)
# Setup conditions: 10 µM unless noted
The panel holds about 83,000 compounds, 20% with a hit somewhere; the sample as a whole holds those more often.
Measurement label: growth (%)

Molecule: CCCCCCCC[Si](OCC)(OCC)OCC
Measurement label: growth
Measurement: 99.2

Molecule: O=C1NC(=S)S/C1=C\c1cc(Br)ccc1O
Measurement label: growth
Measurement: 112

Molecule: CC(=O)Nc1ccc(C(=O)COc2cccc(/C=C3\CCc4ccccc4C3=O)c2)cc1
Measurement label: growth
Measurement: 36.8

Molecule: CCCCCCCCCCCCCCCCCC1=NC(C)(CO)CO1 (stereo not given)
Measurement label: growth
Measurement: 80.7

Molecule: COc1cnc2c(c1)C(=O)c1c-2n(CCCN2CCCC2)c(=O)c2cc(F)ccc12
Measurement label: growth
Measurement: -45.1

Molecule: Nc1ccn(C2O[C@H](CO)[C@@H](O)[C@@H]2O)c(=O)n1 (stereo not given in full)
Measurement label: growth
Measurement: 62.4

Molecule: COc1cc(/C=C/C(=O)C(C(=O)/C=C/c2ccc(OC(=O)CCNc3nnc(C)s3)c(OC)c2)C(=O)CCNc2nnc(C)s2)ccc1OC(=O)CCNc1nnc(C)s1
Measurement label: growth
Measurement: -11.8

Molecule: Cc1ccc(-c2cc(-c3ccccc3)n(-c3ccccc3)n2)cc1
Measurement label: growth
Measurement: 81.2

Molecule: CNCCCn1c2c(c3ccc(F)cc3c1=O)C(=O)c1cc(OC)cnc1-2
Measurement label: growth
Measurement: 1.41

Molecule: COc1cc(-c2n[nH]nc2-c2ccccn2)cc(OC)c1OC
Measurement label: growth
Measurement: 90.6

====

# key: entry, value: growth
# System: HOP-92 NSCLC
# Method summary: NCI-60 one-dose screen, 48 h (100 = growth as untreated, 0 = no growth, -100 = all killed)
# Setup conditions: 10 µM unless noted
About 83,000 compounds went through this panel and 20% of them were active in at least one assay; those are over-represented in the sample as a whole. Activity calls are given as the source filed them. The calls were made as follows: active = growth percent below 10; inactive = the rest.
Measurement label: growth

Molecule: COc1cccc(/C=C2\Cc3ccccc3C2=O)c1
Measurement: 85.7% (inactive)

Molecule: O=c1oc2c(cc1-c1ccc([N+](=O)[O-])cc1)C(O)Oc1ccccc1-2 (stereo not given)
Measurement: -13.6% (active)

Molecule: CCCCCN1C(=O)CCC1=O
Measurement: 79.3% (inactive)

Molecule: CN[C@@H]1C(OC2[C@H](O[C@H]3[C@H](O)[C@@H](O)[C@H](N=C(N)N)[C@@H](O)[C@@H]3N=C(N)N)OC(C)[C@]2(O)CO)OC(CO)C(O)C1O (stereo not given in full)
Measurement: 118% (inactive)

Molecule: O=C(Nc1ccc2c(c1)C(=O)c1ccccc1-2)c1ccccc1
Measurement: 82.1% (inactive)

====

# System: UACC-257 melanoma
# Method summary: NCI-60 one-dose screen, 48 h (100 = growth as untreated, 0 = no growth, -100 = all killed)
# Setup conditions: 10 µM unless noted
The panel holds about 83,000 compounds, 20% with a hit somewhere; the sample as a whole holds those more often.
Response key: true means growth >= 70%; false means growth < 70%.

Molecule: COCCOCCOCCOCCOc1ccc2c(c1)C(=O)c1nc3ncccc3c(=O)n1-2
Tgt: UACC-257 melanoma
Answer label: false

Molecule: CCOC(CNCc1cc(C)c2[nH]c3ccccc3c2c1C)OCC
Tgt: UACC-257 melanoma
Answer label: true

Molecule: O=C(COc1ccc(/C=C2\Oc3ccc4ccccc4c3C2=O)cc1)c1ccc(Cl)cc1
Tgt: UACC-257 melanoma
Answer label: true

Molecule: CCSc1nc(-c2ccc(F)cc2)c(C#N)c(=O)[nH]1
Tgt: UACC-257 melanoma
Answer label: true

Molecule: OCc1n(Cc2ccc3ccccc3c2)cc[n+]1Cc1ccc2ccccc2c1
Tgt: UACC-257 melanoma
Answer label: false

Molecule: Cc1ccc(-c2cc(-c3ccccc3)n(-c3ccccc3)n2)cc1
Tgt: UACC-257 melanoma
Answer label: true

Molecule: COc1ccc2c(c1)[n+](=O)c(/C=C/C(=O)c1cc(OC)c(OC)c(OC)c1)c(C)n2[O-]
Tgt: UACC-257 melanoma
Answer label: false

Molecule: O=CNc1ccc2c(c1)Cc1cc([N+](=O)[O-])ccc1-2
Tgt: UACC-257 melanoma
Answer label: false

Molecule: Cc1ccc(NC(=O)c2sc3nc4c(cc3c2N)C(=O)CCC4)cc1
Tgt: UACC-257 melanoma
Answer label: true

Molecule: O=C(Oc1cccc2ccccc12)c1ccccc1C(=O)c1ccccc1
Tgt: UACC-257 melanoma
Answer label: true

Molecule: O=c1c2ccccc2c2nccn2c2cc(Cl)ccc12
Tgt: UACC-257 melanoma
Answer label: false

Molecule: CC1=C([Se]CC(OC(=O)[C@@H](CSSC(C)(C)C)NC(=O)C(C)(C)C)C(=O)NCCCCCC(=O)OCc2ccccc2)C(=O)c2ccccc2C1=O (some centres undefined)
Tgt: UACC-257 melanoma
Answer label: false

Molecule: COc1ccc(-c2ccc(O)c(C(=O)/C=C/c3cc(OC)c(OC)c(OC)c3)c2)cc1
Tgt: UACC-257 melanoma
Answer label: true

Molecule: COc1cccc(/C=N/Nc2nc3ccccc3s2)c1OC
Tgt: UACC-257 melanoma
Answer label: true

====

# Tested on: HOP-92 NSCLC
# Method summary: NCI-60 one-dose screen, 48 h
# Setup conditions: 10 µM unless noted
Compounds without any hit were thinned out: in the full panel of roughly 83,000, 20% have a hit. The source made the active and inactive calls. Rule for the calls: active = growth percent below 10; inactive = the rest.
Possible outcomes: active, inactive

Compound: COc1ccc(NS(=O)(=O)N2CCCCC2)cc1
Tgt: HOP-92 NSCLC
Answer label: inactive

Compound: COc1ccc(C2=NN(C(C)=O)C(c3c(C)nn(-c4ccccc4)c3N3CCOCC3)C2)cc1 (centres undefined)
Tgt: HOP-92 NSCLC
Answer label: inactive

Compound: O=C(Nc1ccccc1OC(=O)c1ccccc1)c1ccccc1
Tgt: HOP-92 NSCLC
Answer label: inactive

Compound: CCOC(=O)C1=CCC(n2cc(C)c(=O)[nH]c2=O)O1 (centres undefined)
Tgt: HOP-92 NSCLC
Answer label: inactive

Compound: C[C@H]1O[C@@H](O[C@H]2[C@@H](O)C[C@H](O[C@H]3[C@@H](O)C[C@H](O[C@H]4CC[C@]5(C)C6CC[C@]7(C)[C@@H](C8=CC(=O)OC8)CC[C@]7(O)C6CC[C@@H]5C4)O[C@@H]3C)O[C@@H]2C)C[C@H](O)[C@@H]1O (some centres undefined)
Tgt: HOP-92 NSCLC
Answer label: active

Compound: Cc1nn2c(/C=C3/C(=O)Nc4cc(Cl)ccc43)c(-c3ccccc3)nc2s1
Tgt: HOP-92 NSCLC
Answer label: active

Compound: O=C(N/N=C/c1cccc(O)c1)c1ccc(C(F)(F)F)nc1Nc1cccc(C(F)(F)F)c1
Tgt: HOP-92 NSCLC
Answer label: active

Compound: CC(C)N(Cc1ccccc1)c1c(Cl)ssc1=O
Tgt: HOP-92 NSCLC
Answer label: inactive

Compound: NC(=O)c1cc(Cl)ccc1NC(=O)c1ccccc1-c1ccccc1
Tgt: HOP-92 NSCLC
Answer label: inactive
